# Test system: LXFL 529 NSCLC
# Test Method Notes: NCI tumour cell line growth inhibition, 48 h
Listed compounds paired with reported TGI

Past entries and their recorded results:
S=c1nc(N2CCCCC2)ss1 ... 54.2 µM
CC1C(=O)O[C@H]2C1CC[C@@]1(C)[C@H](O)CC[C@@]13C[C@]2(O)OO3 (some centres not stated) ... > 100 µM

// query Quick one: TGI of COc1ccc(-c2c(N)[n+]([O-])c3ccccc3[n+]2[O-])cc1OC ?
// result > 100 µM

// query Quick one: TGI of COC(=O)C1C(OCc2ccccc2)C2CCC1(OC)C=C2C (configuration not stated) ?
// result > 100 µM

// query Quick one: TGI of C1COCCOCCOCCOCCO1.CC(=O)[CH-]C(C)=O.CC(=O)[CH-]C(C)=O.CC(=O)[CH-]C(C)=O.[V] ?
// result 41.2 µM

// query Quick one: TGI of CCCCCCC(C)OC(=O)/C=C(\CC(=O)OC(C)CCCCCC)C(=O)OC(C)CCCCCC (configuration not stated) ?
// result > 100 µM

// query Quick one: TGI of COc1cc2c(c(OC)c1OC)-c1ccc(OC)c(=O)cc1[C@@H](N(C)C=O)CC2 ?
// result > 100 µM
